Target: UniProt P00915
Sequence (P00915 whole entry): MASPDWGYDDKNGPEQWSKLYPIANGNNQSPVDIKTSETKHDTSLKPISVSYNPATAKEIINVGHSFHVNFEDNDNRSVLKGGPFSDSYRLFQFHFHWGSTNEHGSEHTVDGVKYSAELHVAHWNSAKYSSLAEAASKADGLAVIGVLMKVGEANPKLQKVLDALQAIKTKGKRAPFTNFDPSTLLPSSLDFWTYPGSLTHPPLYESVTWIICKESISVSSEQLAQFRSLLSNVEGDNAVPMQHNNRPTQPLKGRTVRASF
pKi: −log10 of the molar value.

compound: Cc1cc(=O)oc2c(O)c(O)ccc12
pKi: 5.06
//
compound: Cc1cc(=O)oc2cc(O)ccc12 [4-Methyl-7-hydroxycoumarin]
pKi: 5.32
//
compound: Cc1cc(=O)oc2c1ccc1ccccc12 [4-Methyl-2H-benzo[h]chromen-2-one (4)]
pKi: 5.05

* * *

Notes on Ki obtained with Carbonic anhydrase 2 (Homo sapiens, UniProt P00918).

compound: Cc1cc(=O)oc2cc(O)ccc12 [4-Methyl-7-hydroxycoumarin]
assayedSystem: Carbonic anhydrase 2 (Homo sapiens, UniProt P00918)
Ki: > 200 µM
//
compound: Cc1cc(=O)oc2c1ccc1ccccc12 [4-Methyl-2H-benzo[h]chromen-2-one (4)]
assayedSystem: Carbonic anhydrase 2 (Homo sapiens, UniProt P00918)
Ki: > 200 µM
//
compound: Cc1cc(=O)oc2c(O)c(O)ccc12
assayedSystem: Carbonic anhydrase 2 (Homo sapiens, UniProt P00918)
Ki: > 200 µM
